# inhibition at 20 µM per record follows
# assay-system: UniProt P21397
# test-description: MAO inhibition assay (Amplex Red, fluorimetric), MAO-A
# experimental-conditions: read-out: Percentage Inhibition at 20 μM MAO-A, 20 μM

>  <molecule>
COc1ccccc1/C=C/C(=O)c1ccc(N2CCOCC2)cc1 [Compound C11]

>  <inhibition at 20 µM>
21.1%

$$$$
>  <molecule>
O=C(/C=C/c1ccc(F)cc1F)c1ccc(N2CCOCC2)cc1 [Compound C14]

>  <inhibition at 20 µM>
75.4%

$$$$
>  <molecule>
O=C(/C=C/c1ccccc1Cl)c1ccc(N2CCOCC2)cc1 [Compound C12]

>  <inhibition at 20 µM>
67.7%

$$$$
>  <molecule>
O=C(/C=C/c1cccc(F)c1)c1ccc(N2CCOCC2)cc1 [Compound C10]

>  <inhibition at 20 µM>
33.9%

$$$$
>  <molecule>
Cc1cccc(/C=C/C(=O)c2ccc(N3CCOCC3)cc2)c1 [Compound C8]

>  <inhibition at 20 µM>
3.11%

$$$$
>  <molecule>
O=C(/C=C/c1ccc(Br)c(F)c1)c1ccc(N2CCOCC2)cc1 [Compound C5]

>  <inhibition at 20 µM>
36.8%

$$$$

###

# test-description: DPPH free radical scavenging antioxidant assay
# experimental-conditions: 25 µM
recorded-metric: % Antioxidant Activity (%)

>  <compound>
COc1ccc(/C=C/C(=O)c2ccc(N3CCOCC3)cc2)cc1OC

>  <recorded-metric>
% Antioxidant Activity

>  <endpoint-result>
32.47

$$$$
>  <compound>
O=C1O[C@H]([C@@H](O)CO)C(O)=C1O [Ascorbic acid, ascorbic acid, reference compound]

>  <recorded-metric>
% Antioxidant Activity

>  <endpoint-result>
20.27

$$$$
>  <compound>
O=C(/C=C/c1ccc(F)cc1F)c1ccc(N2CCOCC2)cc1

>  <recorded-metric>
% Antioxidant Activity

>  <endpoint-result>
18.21

$$$$
>  <compound>
Cc1ccccc1/C=C/C(=O)c1ccc(N2CCOCC2)cc1

>  <recorded-metric>
% Antioxidant Activity

>  <endpoint-result>
30.71

$$$$
>  <compound>
O=C(/C=C/c1ccc(F)c(F)c1)c1ccc(N2CCOCC2)cc1

>  <recorded-metric>
% Antioxidant Activity

>  <endpoint-result>
24.46

$$$$
>  <compound>
O=C(/C=C/c1ccccc1Cl)c1ccc(N2CCOCC2)cc1

>  <recorded-metric>
% Antioxidant Activity

>  <endpoint-result>
19.54

$$$$
>  <compound>
O=C(/C=C/c1ccc(F)cc1)c1ccc(N2CCOCC2)cc1

>  <recorded-metric>
% Antioxidant Activity

>  <endpoint-result>
38.25

$$$$

###

# inhibition at 20 µM annotations
# assay-system: UniProt P21397
# test-description: MAO inhibition assay (Amplex Red, fluorimetric), MAO-A
# experimental-conditions: read-out: Percentage Inhibition at 20 μM MAO-A, 20 μM

>  <cpd-smiles>
O=C(/C=C/c1ccc(F)c(F)c1)c1ccc(N2CCOCC2)cc1

>  <assay-system>
UniProt P21397

>  <reading-unit>
%

>  <inhibition at 20 µM>
71.6

$$$$
>  <cpd-smiles>
Cc1ccccc1/C=C/C(=O)c1ccc(N2CCOCC2)cc1

>  <assay-system>
UniProt P21397

>  <reading-unit>
%

>  <inhibition at 20 µM>
6.17

$$$$
>  <cpd-smiles>
COc1ccc(/C=C/C(=O)c2ccc(N3CCOCC3)cc2)cc1OC

>  <assay-system>
UniProt P21397

>  <reading-unit>
%

>  <inhibition at 20 µM>
15.8

$$$$
>  <cpd-smiles>
O=C(/C=C/c1ccc(Cl)c(Cl)c1)c1ccc(N2CCOCC2)cc1

>  <assay-system>
UniProt P21397

>  <reading-unit>
%

>  <inhibition at 20 µM>
19.4

$$$$
>  <cpd-smiles>
O=C(/C=C/c1ccc(F)cc1)c1ccc(N2CCOCC2)cc1

>  <assay-system>
UniProt P21397

>  <reading-unit>
%

>  <inhibition at 20 µM>
37.7

$$$$

###

# test-description: DPPH free radical scavenging antioxidant assay
# experimental-conditions: 100 µM

>  <compound>
O=C(/C=C/c1cccc(F)c1)c1ccc(N2CCOCC2)cc1 [Compound C10]

>  <% Antioxidant Activity (%)>
32.62

$$$$
>  <compound>
Cc1cccc(/C=C/C(=O)c2ccc(N3CCOCC3)cc2)c1 [Compound C8]

>  <% Antioxidant Activity (%)>
66.42

$$$$
>  <compound>
CCc1ccc(/C=C/C(=O)c2ccc(N3CCOCC3)cc2)cc1 [Compound C13]

>  <% Antioxidant Activity (%)>
66.87

$$$$
>  <compound>
O=C(/C=C/c1ccccc1Cl)c1ccc(N2CCOCC2)cc1 [Compound C12]

>  <% Antioxidant Activity (%)>
35.95

$$$$
>  <compound>
O=C(/C=C/c1ccc(F)cc1F)c1ccc(N2CCOCC2)cc1 [Compound C14]

>  <% Antioxidant Activity (%)>
59.51

$$$$
>  <compound>
O=C(/C=C/c1ccc(F)cc1)c1ccc(N2CCOCC2)cc1 [Compound C3]

>  <% Antioxidant Activity (%)>
56.87

$$$$
>  <compound>
O=C1O[C@H]([C@@H](O)CO)C(O)=C1O [Ascorbic acid, ascorbic acid, reference compound]

>  <% Antioxidant Activity (%)>
58.53

$$$$
>  <compound>
Cc1ccc(/C=C/C(=O)c2ccc(N3CCOCC3)cc2)cc1 [Compound C9]

>  <% Antioxidant Activity (%)>
44.66

$$$$
>  <compound>
Cc1ccccc1/C=C/C(=O)c1ccc(N2CCOCC2)cc1 [Compound C15]

>  <% Antioxidant Activity (%)>
29.17

$$$$
>  <compound>
COc1ccccc1/C=C/C(=O)c1ccc(N2CCOCC2)cc1 [Compound C11]

>  <% Antioxidant Activity (%)>
36.45

$$$$
>  <compound>
O=C(/C=C/c1ccc(F)c(F)c1)c1ccc(N2CCOCC2)cc1 [Compound C6]

>  <% Antioxidant Activity (%)>
55.16

$$$$

###

# assay-system: hMAO-B (Homo sapiens)
# test-description: MAO inhibition assay (Amplex Red, fluorimetric), MAO-B
# experimental-conditions: read-out: Percentage Inhibition at 20 μM MAO-B

>  <compound>
Cc1ccccc1/C=C/C(=O)c1ccc(N2CCOCC2)cc1 [Compound C15]

>  <inhibition at 20 µM>
25.7%

$$$$
>  <compound>
Cc1cccc(/C=C/C(=O)c2ccc(N3CCOCC3)cc2)c1 [Compound C8]

>  <inhibition at 20 µM>
6.32%

$$$$
>  <compound>
O=C(/C=C/c1ccc(Cl)cc1)c1ccc(N2CCOCC2)cc1 [Compound C7]

>  <inhibition at 20 µM>
7.43%

$$$$
>  <compound>
O=C(/C=C/c1ccc(Br)cc1)c1ccc(N2CCOCC2)cc1 [Compound C1]

>  <inhibition at 20 µM>
6.59%

$$$$
>  <compound>
COc1ccc(/C=C/C(=O)c2ccc(N3CCOCC3)cc2)cc1OC [Compound C4]

>  <inhibition at 20 µM>
5.56%

$$$$
>  <compound>
Cc1ccc(/C=C/C(=O)c2ccc(N3CCOCC3)cc2)cc1 [Compound C9]

>  <inhibition at 20 µM>
6.77%

$$$$
>  <compound>
O=C(/C=C/c1cccc(F)c1)c1ccc(N2CCOCC2)cc1 [Compound C10]

>  <inhibition at 20 µM>
12.4%

$$$$

###

# assay-system: hMAO-A (Homo sapiens)
# Sequence (P21397 whole entry): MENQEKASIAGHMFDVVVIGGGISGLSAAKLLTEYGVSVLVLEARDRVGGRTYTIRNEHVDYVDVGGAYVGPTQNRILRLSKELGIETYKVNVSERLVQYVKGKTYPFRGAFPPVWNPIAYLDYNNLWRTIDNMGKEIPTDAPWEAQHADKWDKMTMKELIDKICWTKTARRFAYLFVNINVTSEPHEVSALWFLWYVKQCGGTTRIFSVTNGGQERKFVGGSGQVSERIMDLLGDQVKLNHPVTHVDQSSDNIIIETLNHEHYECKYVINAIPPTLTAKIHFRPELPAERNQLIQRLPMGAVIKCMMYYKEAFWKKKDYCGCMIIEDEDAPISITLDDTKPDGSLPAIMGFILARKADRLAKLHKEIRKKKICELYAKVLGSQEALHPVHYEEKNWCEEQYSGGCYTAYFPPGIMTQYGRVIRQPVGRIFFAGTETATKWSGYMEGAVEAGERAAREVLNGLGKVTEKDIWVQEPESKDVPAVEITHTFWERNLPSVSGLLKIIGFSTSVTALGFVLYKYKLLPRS
# test-description: MAO inhibition assay (Amplex Red, fluorimetric), MAO-A
# experimental-conditions: read-out: Percentage Inhibition at 20 μM MAO-A
recorded-metric: inhibition at 20 µM (%)

>  <molecule>
Cc1ccc(/C=C/C(=O)c2ccc(N3CCOCC3)cc2)cc1

>  <prefix-operator>
=

>  <endpoint-result>
4.95

$$$$
>  <molecule>
CCc1ccc(/C=C/C(=O)c2ccc(N3CCOCC3)cc2)cc1

>  <prefix-operator>
=

>  <endpoint-result>
7.25

$$$$
>  <molecule>
C#CCN(C)CCCOc1ccc(Cl)cc1Cl [Clorgyline, clorgyline, reference compound]

>  <prefix-operator>
=

>  <endpoint-result>
95

$$$$
>  <molecule>
O=C(/C=C/c1ccc(Br)cc1)c1ccc(N2CCOCC2)cc1

>  <prefix-operator>
=

>  <endpoint-result>
13.6

$$$$
>  <molecule>
O=C(/C=C/c1ccc(Cl)cc1)c1ccc(N2CCOCC2)cc1

>  <prefix-operator>
=

>  <endpoint-result>
21.4

$$$$
>  <molecule>
C#CCN(C)Cc1ccccc1 [Pargyline, pargyline, reference compound]

>  <prefix-operator>
<

>  <endpoint-result>
50

$$$$

###

# Lookup of reported inhibition at 20 µM keyed by entry
# assay-system: hMAO-B (Homo sapiens)
# Sequence (P27338 1-520): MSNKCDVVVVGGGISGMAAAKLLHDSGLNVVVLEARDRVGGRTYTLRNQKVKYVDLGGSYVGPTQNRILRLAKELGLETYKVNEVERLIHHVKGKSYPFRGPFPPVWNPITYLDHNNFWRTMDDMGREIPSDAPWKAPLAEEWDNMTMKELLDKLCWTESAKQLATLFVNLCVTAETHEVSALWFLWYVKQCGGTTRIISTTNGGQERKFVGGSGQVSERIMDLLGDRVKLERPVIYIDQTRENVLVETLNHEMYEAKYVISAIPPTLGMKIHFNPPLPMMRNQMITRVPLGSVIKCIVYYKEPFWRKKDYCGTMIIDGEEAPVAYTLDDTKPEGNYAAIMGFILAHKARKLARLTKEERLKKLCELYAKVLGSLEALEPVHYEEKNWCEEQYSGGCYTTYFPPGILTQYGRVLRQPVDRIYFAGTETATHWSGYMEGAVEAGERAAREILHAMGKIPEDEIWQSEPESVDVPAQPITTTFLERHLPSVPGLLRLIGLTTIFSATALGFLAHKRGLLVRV
# test-description: MAO inhibition assay (Amplex Red, fluorimetric), MAO-B
# experimental-conditions: read-out: Percentage Inhibition at 20 μM MAO-B
recorded-metric: inhibition at 20 µM (%)

>  <compound>
O=C(/C=C/c1ccc(Br)c(F)c1)c1ccc(N2CCOCC2)cc1 [Compound C5]

>  <reading-unit>
%

>  <endpoint-result>
6.54

$$$$
>  <compound>
O=C(/C=C/c1ccc(Cl)c(Cl)c1)c1ccc(N2CCOCC2)cc1 [Compound C2]

>  <reading-unit>
%

>  <endpoint-result>
4.74

$$$$
>  <compound>
C#CCN(C)Cc1ccccc1 [Pargyline, pargyline, reference compound]

>  <reading-unit>
%

>  <endpoint-result>
99

$$$$
>  <compound>
COc1ccccc1/C=C/C(=O)c1ccc(N2CCOCC2)cc1 [Compound C11]

>  <reading-unit>
%

>  <endpoint-result>
18.6

$$$$
>  <compound>
O=C(/C=C/c1ccc(F)cc1F)c1ccc(N2CCOCC2)cc1 [Compound C14]

>  <reading-unit>
%

>  <endpoint-result>
35.3

$$$$
>  <compound>
CCc1ccc(/C=C/C(=O)c2ccc(N3CCOCC3)cc2)cc1 [Compound C13]

>  <reading-unit>
%

>  <endpoint-result>
17.5

$$$$
>  <compound>
O=C(/C=C/c1ccccc1Cl)c1ccc(N2CCOCC2)cc1 [Compound C12]

>  <reading-unit>
%

>  <endpoint-result>
23.9

$$$$
>  <compound>
O=C(/C=C/c1ccc(F)cc1)c1ccc(N2CCOCC2)cc1 [Compound C3]

>  <reading-unit>
%

>  <endpoint-result>
7.11

$$$$
>  <compound>
O=C(/C=C/c1ccc(F)c(F)c1)c1ccc(N2CCOCC2)cc1 [Compound C6]

>  <reading-unit>
%

>  <endpoint-result>
31.9

$$$$

Values from paper PMC11945657
